- experimental_details: protein stability index of a GFP-peptide fusion (GPS, HEK-293T) (PSI 1-6); higher = more stable;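 further: 24-mer peptide tiles fused after GFP, lentivirally expressed, FACS-sorted into six equal bins by GFP/DsRed ratio, decoded by Illumina sequencing, PSI is the read-weighted mean bin number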
- condition: treatment: MLN4924 1 uM, 8 h; c terminus: a fixed tail appended
Rule: protein stability index of 3 or more gives MET; anything lower gives NOT MET.

[
  {
    "sequence_code": "ELCRDAAQFRLLSEVEELNMSLTA [TEKT4]",
    "label_value": "NOT MET"
  },
  {
    "sequence_code": "AKGNTALHDCAESGSLEILQLLLG [FEM1A]",
    "label_value": "NOT MET"
  },
  {
    "sequence_code": "DMLIREVVEKRLCMYEHGEDTHQS [RSPH3]",
    "label_value": "MET"
  },
  {
    "sequence_code": "KASWSSLSMDEKVELYRIKFKESF [COX4I1]",
    "label_value": "NOT MET"
  },
  {
    "sequence_code": "FGAVVRWAEAECQRQQLPVTFGNK [BTBD1]",
    "label_value": "NOT MET"
  },
  {
    "sequence_code": "DKGGRVVIFQREQESKNQVHRRGE [PPP2R2B]",
    "label_value": "MET"
  },
  {
    "sequence_code": "PACLGQPHTPGKPTSSCTSRSAPP [FOXJ1]",
    "label_value": "MET"
  },
  {
    "sequence_code": "CYMATTKSQTACLPFVLAAAVSRK [EHMT1]",
    "label_value": "NOT MET"
  },
  {
    "sequence_code": "QRVKLKLWDTSGQGRFCTIFRSYS [RAB40A]",
    "label_value": "NOT MET"
  },
  {
    "sequence_code": "LNAYMKSLLSLPVWVLMDEDVRIF [NCF4]",
    "label_value": "NOT MET"
  },
  {
    "sequence_code": "YFYMSCLVKHKRIHSREKRGDSVK [ZNF649]",
    "label_value": "NOT MET"
  },
  {
    "sequence_code": "FAQYDSFHVDSAAEYYRLHLEGYH [TNXB]",
    "label_value": "NOT MET"
  },
  {
    "sequence_code": "LISGVTLDNCVEVGRIANTYNLTE [KLHL13]",
    "label_value": "NOT MET"
  },
  {
    "sequence_code": "LPLLESCSVRPDASVSSHRFFGPN [TCF25]",
    "label_value": "MET"
  },
  {
    "sequence_code": "PTLSCEKYLTYDQLRKQKKKTGKS [ELOA2]",
    "label_value": "MET"
  },
  {
    "sequence_code": "ALVKEREKQLAKKEQSKELQMKLE [FAM50A]",
    "label_value": "MET"
  },
  {
    "sequence_code": "QVADVPEKPRVPAFACQVAGCCQV [ZNF511]",
    "label_value": "MET"
  },
  {
    "sequence_code": "GAGIIVTEAGGVLMDVTGGPFDLM [IMPA1]",
    "label_value": "NOT MET"
  },
  {
    "sequence_code": "CFVLGFFYPVMLILFLVIGGMLNF [SOAT2]",
    "label_value": "MET"
  },
  {
    "sequence_code": "RAKDLVELDPEVEGTKPSATEMIW [GOLPH3L]",
    "label_value": "MET"
  },
  {
    "sequence_code": "QLDSRYWRITNAKGDVEEVQGPGV [FBXO3]",
    "label_value": "MET"
  }
]

====

- experimental_details: protein stability index of a GFP-peptide fusion (GPS, HEK-293T) (PSI 1-6); higher = more stable
- condition: treatment: MLN4924 1 uM, 8 h; c terminus: a fixed tail appended
readout_kind: protein stability index

[
  {
    "sequence_code": "QPKEKIQAIIESCSRQFPEFQERA [NOL4L]",
    "readout_kind": "protein stability index",
    "quantitative_result": 3.85
  },
  {
    "sequence_code": "GPDGHLPAVATLCDLFDREIVVTI [ESRRA]",
    "readout_kind": "protein stability index",
    "quantitative_result": 2.91
  },
  {
    "sequence_code": "QLLTLRELEMIGFIENNVSKLSLL [TRIP13]",
    "readout_kind": "protein stability index",
    "quantitative_result": 2.66
  },
  {
    "sequence_code": "TRNGEVVTESQKEQRSELDKSSAH [PRPH]",
    "readout_kind": "protein stability index",
    "quantitative_result": 5.31
  },
  {
    "sequence_code": "GPGDGPPEIAQNFSAPDPPRPRPV [SMTNL2]",
    "readout_kind": "protein stability index",
    "quantitative_result": 5.03
  },
  {
    "sequence_code": "PGRRDEDAGEGIQCSQRMLSFSDA [TMEM175]",
    "readout_kind": "protein stability index",
    "quantitative_result": 4.91
  },
  {
    "sequence_code": "SVGFQSNEAASLASTGVGVVKVIS [SLC2A12]",
    "readout_kind": "protein stability index",
    "quantitative_result": 3.6
  }
]

====

- experimental_details: protein stability index of a GFP-peptide fusion (GPS, HEK-293T) (PSI 1-6); higher = more stable
- condition: treatment: MLN4924 1 uM, 8 h; c terminus: a fixed tail appended
Below: a set of entries, each annotated with reported protein stability index.

[
  {
    "sequence_code": "VVAILAAACLLQLDGLIQQCGETM [GMCL1]",
    "protein stability index": 2.92
  },
  {
    "sequence_code": "GLPSSELDAVENQLKWASWELHSL [ZNF24]",
    "protein stability index": 3
  },
  {
    "sequence_code": "AFDYNSLSPTQRQKNFELAFTMAE [SMTNL2]",
    "protein stability index": 3.09
  },
  {
    "sequence_code": "VGIFNTVINPMLNPIIYSFRNPDV [OR3A1]",
    "protein stability index": 3.03
  }
]

====

- experimental_details: protein stability index of a GFP-peptide fusion (GPS, HEK-293T) (PSI 1-6); higher = more stable
- condition: treatment: MLN4924 1 uM, 8 h; c terminus: a fixed tail appended
Below: a set of entries, each annotated with reported protein stability index.
readout_kind: protein stability index

[
  {
    "sequence_code": "GSVADTVARVLRGCLENMPEADCI [PLK2]",
    "quantitative_result": 2.94
  },
  {
    "sequence_code": "TDLDAVRTPEPLEEFPKREDQEGS [MYBL2]",
    "quantitative_result": 5.52
  },
  {
    "sequence_code": "PEFELLWKDIIHNPQALSPQFTGI [INTS3]",
    "quantitative_result": 2.21
  },
  {
    "sequence_code": "MEKMLAGCFLLILGQIVLLPAEAR [MATN2]",
    "quantitative_result": 3.01
  },
  {
    "sequence_code": "LKNTPRFKRRRVRRRRMETIVFLD [PCMTD2]",
    "quantitative_result": 3.33
  },
  {
    "sequence_code": "TFLVFSKAELGALPHDFIDSLEKT [NLN]",
    "quantitative_result": 2.5
  }
]

====

- experimental_details: protein stability index of a GFP-peptide fusion (GPS, HEK-293T) (PSI 1-6); higher = more stable
- condition: treatment: MLN4924 1 uM, 8 h; c terminus: a fixed tail appended
readout_kind: protein stability index

[
  {
    "sequence_code": "SDSPDAADSTSFDVQLGDIILTAT [PPTC7]",
    "result": 4.01
  },
  {
    "sequence_code": "SSKEEQKLIATSNKPAVKLLYNRS [KCTD10]",
    "result": 4.08
  },
  {
    "sequence_code": "VSDSLTWREFHYIQSKLGIVSLLL [STEAP1]",
    "result": 2.18
  },
  {
    "sequence_code": "PGPREALSQLRVLCCEWLRPEKHT [ZNF232]",
    "result": 2.15
  },
  {
    "sequence_code": "VLRAEHRGFQEENKALWENNKLKL [CBY2]",
    "result": 3.89
  },
  {
    "sequence_code": "LNDQNLCIPASSSFVYGAVPIGAS [GAN]",
    "result": 3.13
  },
  {
    "sequence_code": "EAIQPYRDRLRSRLEALSTERDEI [TRIM15]",
    "result": 4.52
  },
  {
    "sequence_code": "GEDEENREHRVRRIHVRRHITHDE [KCTD13]",
    "result": 5.1
  },
  {
    "sequence_code": "QYLRLPDAPEQRLRVMTTNIRSAR [ELOA2]",
    "result": 3.9
  },
  {
    "sequence_code": "EIDSVPKTQSELASESEHIPKPQS [MIA2]",
    "result": 5.49
  },
  {
    "sequence_code": "NWATTPSSQKKDTSSSTVVSTQRS [TIA1]",
    "result": 4.92
  },
  {
    "sequence_code": "SFAELFSFMLQDRAKGLLGTTVTF [FEM1C]",
    "result": 3.21
  },
  {
    "sequence_code": "LHSKEIVYRDLKPENILLDRDGHI [PRKX]",
    "result": 3.75
  }
]
